measuredOn: T1, soluble dimeric FcγRIIB (extracellular domain fused to hinge-CH2-CH3 of human IgG2) (human, UniProt P31994 43-217)
T1 construct: extracellular domain; also called FcRIIB; FcRIIB-Fc; not shown: human IgG2 hinge-CH2-CH3
T1 sequence (looked up): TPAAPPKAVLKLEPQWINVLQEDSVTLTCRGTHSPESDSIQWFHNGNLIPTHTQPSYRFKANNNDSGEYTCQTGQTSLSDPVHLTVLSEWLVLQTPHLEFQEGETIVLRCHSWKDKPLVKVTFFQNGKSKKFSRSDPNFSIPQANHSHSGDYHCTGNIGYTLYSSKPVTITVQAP
method: ELISA
Measured Binding to FcγRIIB (ELISA), listed per entry for reference.
Report as a plain number; the unit fold increase is understood.

// known answers, use as guide
INSERT INTO results (binder, measvalue) VALUES
  ('IgG1 Fc mutant A231V, Q386H, V412M (antibody) heavy: ASTKGPSVFPLAPSSKSTSGGTAALGCLVKDYFPEPVTVSWNSGALTSGVHTFPAVLQSSGLYSLSSVVTVPSSSLGTQTYICNVNHKPSNTKVDKKVEPKSCDKTHTCPPCPVPELLGGPSVFLFPPKPKDTLMISRTPEVTCVVVDVSHEDPEVKFNWYVDGVEVHNAKTKPREEQYNSTYRVVSVLTVLHQDWLNGKEYKCKVSNKALPAPIEKTISKAKGQPREPQVYTLPPSRDELTKNQVSLTCLVKGFYPSDIAVEWESNGHPENNYKTTPPVLDSDGSFFLYSKLTMDKSRWQQGNVFSCSVMHEALHNHYTQKSLSLSPGK', 6),
  ('IgG1 Fc mutant V282E, V369I, L406F (antibody) heavy: ASTKGPSVFPLAPSSKSTSGGTAALGCLVKDYFPEPVTVSWNSGALTSGVHTFPAVLQSSGLYSLSSVVTVPSSSLGTQTYICNVNHKPSNTKVDKKVEPKSCDKTHTCPPCPAPELLGGPSVFLFPPKPKDTLMISRTPEVTCVVVDVSHEDPEVKFNWYVDGEEVHNAKTKPREEQYNSTYRVVSVLTVLHQDWLNGKEYKCKVSNKALPAPIEKTISKAKGQPREPQVYTLPPSRDELTKNQVSLTCLIKGFYPSDIAVEWESNGQPENNYKTTPPVLDSDGSFFFYSKLTVDKSRWQQGNVFSCSVMHEALHNHYTQKSLSLSPGK', 7);

Q) Query (binder): IgG1 Fc mutant K246N, Q419R, P396L (antibody) heavy: ASTKGPSVFPLAPSSKSTSGGTAALGCLVKDYFPEPVTVSWNSGALTSGVHTFPAVLQSSGLYSLSSVVTVPSSSLGTQTYICNVNHKPSNTKVDKKVEPKSCDKTHTCPPCPAPELLGGPSVFLFPPNPKDTLMISRTPEVTCVVVDVSHEDPEVKFNWYVDGVEVHNAKTKPREEQYNSTYRVVSVLTVLHQDWLNGKEYKCKVSNKALPAPIEKTISKAKGQPREPQVYTLPPSRDELTKNQVSLTCLVKGFYPSDIAVEWESNGQPENNYKTTPLVLDSDGSFFLYSKLTVDKSRWQRGNVFSCSVMHEALHNHYTQKSLSLSPGK ; field requested: Binding to FcγRIIB (ELISA)
A) 4.8

Q) Query (binder): IgG1 Fc mutant C229Y, A287T, V379M, P396L, L443V (antibody) heavy: ASTKGPSVFPLAPSSKSTSGGTAALGCLVKDYFPEPVTVSWNSGALTSGVHTFPAVLQSSGLYSLSSVVTVPSSSLGTQTYICNVNHKPSNTKVDKKVEPKSCDKTHTCPPYPAPELLGGPSVFLFPPKPKDTLMISRTPEVTCVVVDVSHEDPEVKFNWYVDGVEVHNTKTKPREEQYNSTYRVVSVLTVLHQDWLNGKEYKCKVSNKALPAPIEKTISKAKGQPREPQVYTLPPSRDELTKNQVSLTCLVKGFYPSDIAMEWESNGQPENNYKTTPLVLDSDGSFFLYSKLTVDKSRWQQGNVFSCSVMHEALHNHYTQKSLSVSPGK ; field requested: Binding to FcγRIIB (ELISA)
A) 10
